meta.source: patent US20240360228A1

molecular target: T1, human chemokine (C-C motif) receptor 8 (CCR8) (human, UniProt P51685 1-355); test: flow cytometry blocking, human PBMC, CD3+ gate; % cells stained by competitor PE-433H after block
T1 construct: also called hCCR8
T1 sequence (P51685 whole entry): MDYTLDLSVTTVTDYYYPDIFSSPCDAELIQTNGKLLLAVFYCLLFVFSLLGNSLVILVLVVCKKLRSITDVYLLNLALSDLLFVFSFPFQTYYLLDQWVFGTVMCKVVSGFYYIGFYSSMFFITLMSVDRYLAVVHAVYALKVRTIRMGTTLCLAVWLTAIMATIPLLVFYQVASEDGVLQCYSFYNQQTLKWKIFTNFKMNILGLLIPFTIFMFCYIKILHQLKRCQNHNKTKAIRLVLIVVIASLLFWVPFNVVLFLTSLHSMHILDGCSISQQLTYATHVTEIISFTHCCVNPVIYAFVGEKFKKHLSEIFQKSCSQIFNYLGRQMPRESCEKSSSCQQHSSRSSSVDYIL
measure_name: % Positive cells (%)

INSERT INTO results (binder, endpoint_result) VALUES
  ('anti-CCR8 monoclonal antibody AB7 (antibody, V domains shown, Hybridoma monoclonal; also called antibody 7; clone 7) VH: AVQLVESGGGLVQPKESLKISCAASGFTFSYAAMYWVRQTPGKGLEWVARIRTKPNNYATYYADSVKGRFTISRDDSKSMVYLQMDNLKSEDTAMYYCNIMGITRGYYFDYWGQGVMVTVSS VL: DIQMTQSPSFLSASVGDRVTINCKASQNINRYLNWYQQQLGEAPKLLIYNANNLQTGIPSRFSGSRSGTDFTLTISSLQPEDVATYFCLQHNSWPWTFGGGTKLELK', 0.88),
  ('anti-CCR8 monoclonal antibody AB5 (antibody, V domains shown, Hybridoma monoclonal; also called antibody 5; clone 5) VH: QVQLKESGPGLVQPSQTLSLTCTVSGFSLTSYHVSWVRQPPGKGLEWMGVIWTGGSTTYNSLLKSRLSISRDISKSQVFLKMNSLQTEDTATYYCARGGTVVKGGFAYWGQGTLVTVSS VL: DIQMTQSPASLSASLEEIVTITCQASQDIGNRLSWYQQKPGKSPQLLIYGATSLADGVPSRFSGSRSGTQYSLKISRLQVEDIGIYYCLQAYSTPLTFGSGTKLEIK', 7.14),
  ('anti-CCR8 monoclonal antibody AB11 (antibody, V domains shown, Hybridoma monoclonal; also called antibody 11; clone 11) VH: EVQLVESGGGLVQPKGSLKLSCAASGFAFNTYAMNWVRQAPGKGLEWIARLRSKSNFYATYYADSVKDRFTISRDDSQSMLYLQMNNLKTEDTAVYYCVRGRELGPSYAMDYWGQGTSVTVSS VL: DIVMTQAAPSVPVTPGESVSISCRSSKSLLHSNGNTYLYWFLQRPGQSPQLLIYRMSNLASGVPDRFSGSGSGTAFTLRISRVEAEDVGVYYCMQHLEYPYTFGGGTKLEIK', 3.73),
  ('anti-CCR8 monoclonal antibody AB8 (antibody, V domains shown, Hybridoma monoclonal; also called antibody 8; clone 8) VH: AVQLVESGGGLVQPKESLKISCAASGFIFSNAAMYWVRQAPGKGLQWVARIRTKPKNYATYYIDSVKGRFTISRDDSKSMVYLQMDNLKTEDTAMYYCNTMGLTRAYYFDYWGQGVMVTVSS VL: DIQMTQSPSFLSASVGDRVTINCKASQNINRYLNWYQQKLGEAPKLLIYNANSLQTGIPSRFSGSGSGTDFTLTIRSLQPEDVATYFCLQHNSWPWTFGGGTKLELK', 0.84);
